- testedSystem: Human cytomegalovirus DNA polymerase (Human cytomegalovirus, UniProt P08546)
- Sequence (P08546 whole entry): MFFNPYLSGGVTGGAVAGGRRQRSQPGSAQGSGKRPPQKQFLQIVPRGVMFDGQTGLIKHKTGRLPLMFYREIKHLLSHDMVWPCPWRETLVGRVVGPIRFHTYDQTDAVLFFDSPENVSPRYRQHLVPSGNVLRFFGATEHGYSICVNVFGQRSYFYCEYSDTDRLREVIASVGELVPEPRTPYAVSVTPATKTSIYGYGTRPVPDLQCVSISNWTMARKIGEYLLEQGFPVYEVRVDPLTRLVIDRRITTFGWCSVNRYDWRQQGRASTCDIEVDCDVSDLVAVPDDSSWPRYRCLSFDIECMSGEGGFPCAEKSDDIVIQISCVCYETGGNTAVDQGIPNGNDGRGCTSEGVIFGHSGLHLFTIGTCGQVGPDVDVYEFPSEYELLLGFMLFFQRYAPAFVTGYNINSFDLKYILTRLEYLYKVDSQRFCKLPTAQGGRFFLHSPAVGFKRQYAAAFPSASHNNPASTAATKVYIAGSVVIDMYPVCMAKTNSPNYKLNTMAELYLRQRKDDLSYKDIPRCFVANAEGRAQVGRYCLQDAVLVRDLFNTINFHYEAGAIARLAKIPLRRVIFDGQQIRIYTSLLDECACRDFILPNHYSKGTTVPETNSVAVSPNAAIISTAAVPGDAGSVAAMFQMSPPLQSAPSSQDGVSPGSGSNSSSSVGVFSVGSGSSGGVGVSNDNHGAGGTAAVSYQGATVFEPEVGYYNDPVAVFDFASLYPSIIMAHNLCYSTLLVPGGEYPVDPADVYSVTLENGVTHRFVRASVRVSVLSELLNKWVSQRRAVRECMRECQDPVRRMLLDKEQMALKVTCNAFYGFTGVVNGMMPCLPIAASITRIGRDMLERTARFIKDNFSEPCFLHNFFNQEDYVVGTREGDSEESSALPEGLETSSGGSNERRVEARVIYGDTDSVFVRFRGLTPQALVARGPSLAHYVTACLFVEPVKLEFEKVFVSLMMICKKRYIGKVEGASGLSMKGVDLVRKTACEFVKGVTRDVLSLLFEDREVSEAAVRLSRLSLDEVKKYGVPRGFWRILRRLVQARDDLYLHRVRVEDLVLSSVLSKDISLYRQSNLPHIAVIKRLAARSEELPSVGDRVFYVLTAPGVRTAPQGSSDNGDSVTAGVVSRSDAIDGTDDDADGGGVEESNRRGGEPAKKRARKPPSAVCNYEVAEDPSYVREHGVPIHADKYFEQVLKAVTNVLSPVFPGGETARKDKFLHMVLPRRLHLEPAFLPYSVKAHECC
pIC50: −log10 of the molar value.
assayReadout: pIC50

Example results:
O=C(NCc1ccc(Cl)cc1F)c1cc(O[C@H]2CCN3C(=O)OC[C@@H]3C2)c(-c2cnn(C(F)F)c2)cn1 = 7.58
C[C@@H]1CN(C)CCN1c1cc(C(=O)NCc2ccc(Cl)cc2)ncc1C#N = 7.32
C[C@H](NC(=O)c1cc(O[C@H]2CCN3C(=O)OC[C@@H]3C2)c(-c2cnn(C(F)F)c2)cn1)c1ccc(Cl)cc1 = 7.84
O=C(NCc1ccc(Cl)cc1)c1cc(O[C@H]2CCN3C(=O)OC[C@@H]3C2)c(N2CC(O)C2)cn1 = 7.72
C#Cc1ccc(CNC(=O)c2cc(O[C@H]3CCN4C(=O)OC[C@@H]4C3)c(-c3cnn(C(F)F)c3)cn2)cc1 = 6.74

I: Cn1cc(-c2cnc(C(=O)NCc3ccc(Cl)c(F)c3)cc2O[C@H]2CCN3C(=O)OC[C@@H]3C2)cn1
II: Cn1cc(-c2cnc(C(=O)N3CCCC3c3ccc(Cl)cc3)cc2O[C@H]2CCN3C(=O)OC[C@@H]3C2)cn1 (stereo partly shown)
# argmax over pIC50 for candidates I and II Please reply using the label of the selected record.
I
(I: 8.26, II: 6.01)

// provenance: patent US20240067657A1
